Entry source: patent US4965269A

Task for the reader: assign each of the following compounds its reported Chemical Stability at pH 2, t 10%.
assay: Chemical stability in aqueous buffer solution; format: physicochemical; settings: pH 2, 37° C., time after which 10% of the original compound has decomposed
Give just the numeric value; h need not be written.

Would you mind telling me what Chemical Stability at pH 2, t 10% value was observed for COc1ccnc(C[S+]([O-])c2nc3ccc(Cl)cc3n2COC(=O)OCc2ccccc2)c1OC (stereo not shown) ?
27

Would you mind telling me what Chemical Stability at pH 2, t 10% value was observed for CCCCOC(=O)OCn1c([S+]([O-])Cc2nccc(OC)c2OC)nc2ccc(Cl)cc21 (stereo not shown) ?
42

Would you mind telling me what Chemical Stability at pH 2, t 10% value was observed for COc1ccnc(C[S+]([O-])c2nc3cc(Cl)ccc3n2COC(=O)OCc2ccccc2)c1OC (stereo not shown) ?
14

Would you mind telling me what Chemical Stability at pH 2, t 10% value was observed for CCCCOC(=O)OCn1c([S+]([O-])Cc2nccc(OC)c2OC)nc2cc(Cl)ccc21 (stereo not shown) ?
21
